test system: Vero E6 infected with SARS-CoV-2; test: inhibition of SARS-CoV-2 cytopathic effect; higher = more antiviral protection, active = above 15; settings: 8.33 nM; 48 h
Here, each record is paired with measured inhibition of SARS-CoV-2 cytopathic effect data.
OUTCOME MEASURE: inhibition of SARS-CoV-2 cytopathic effect

COMPOUND	RESULT
CCN(CC)CCOc1ccc(/C(=C(\Cl)c2ccccc2)c2ccccc2)cc1	1.97% (inactive)
CC/C(=C(/CC)c1ccc(O)cc1)c1ccc(O)cc1	-2.29% (inactive)
N[C@@H](Cc1c[nH]c2ccccc12)C(=O)O	-7.31% (inactive)
CCOC(=O)c1c(O)nc2cccc3c2c1-c1ccccc1C3=O	0.57% (inactive)
NS(=O)(=O)c1cc(C(=O)O)cc(N2CCCC2)c1Oc1ccccc1 [piretanide]	5.18% (inactive)
CC[C@H](C)C(=O)O[C@H]1C[C@H](O)C=C2C=C[C@H](C)[C@H](CC[C@@H](O)C[C@@H](O)CC(=O)O)[C@H]21	3.73% (inactive)
Cc1oc2nc3c(c(NC(=O)CN4CCCC4=O)c2c1C)CCCC3	-2.29% (inactive)
CCN(CC)CCNC(=O)c1c(C)[nH]c(/C=C2\C(=O)Nc3ccc(F)cc32)c1C	-1.31% (inactive)
CN(C)C(=O)C(=O)c1cn(C)c2cc(Cl)c(C(=O)N3CCC(Cc4ccc(F)cc4)CC3)cc12	-1.11% (inactive)
O=C(O)c1ccc(N2N=C(Cc3ccccc3)/C(=C\c3ccc(-c4ccccc4F)o3)C2=O)cc1	0.52% (inactive)
COC(=O)/C=C/C(=O)OCCN1C(=O)CCC1=O [diroximel-fumarate]	-0.95% (inactive)
CN(c1nccc(=O)[nH]1)C1CCN(c2nc3ccccc3n2Cc2ccc(F)cc2)CC1	-0.74% (inactive)
NC(N)=Nc1nc(CSCCN/C=N/S(=O)(=O)c2ccc(Br)cc2)cs1	1.21% (inactive)
FC(F)(F)c1ccc(N2CCNCC2)nc1Cl	-0.28% (inactive)
OCc1c[nH]c2ccccc12	0.47% (inactive)
Clc1ccc(COC(Cn2ccnc2)c2ccc(Cl)cc2Cl)cc1 (stereo unspecified)	1.04% (inactive)
CN(C)C(=O)c1cc2cnc(Nc3ccc(N4CCNCC4)cn3)nc2n1C1CCCC1	-0.13% (inactive)
C=CC(=O)Nc1cccc(Nc2nc(Nc3ccc(N4CCN(C(C)=O)CC4)cc3OC)ncc2C(F)(F)F)c1	-1.67% (inactive)
CC(=C(CCOC(=O)C(C)C)SSC(CCOC(=O)C(C)C)=C(C)N(C=O)Cc1cnc(C)nc1N)N(C=O)Cc1cnc(C)nc1N (stereo in doubt)	2.05% (inactive)
CC#C[C@@H](CC(=O)O)c1ccc(OCc2cccc(-c3ccc(C(F)(F)F)cc3)c2)cc1	1.42% (inactive)
OC[C@H]1O[C@@H](c2ccc(F)c(Cc3cc4ccccc4s3)c2)[C@H](O)[C@@H](O)[C@@H]1O	-0.16% (inactive)
CS(=O)(=O)c1cc(F)cc2c3c(n(Cc4ccc(Cl)cc4)c12)[C@@H](CC(=O)O)CC3	-3% (inactive)
Cc1ccc(/C=C2/C(=O)C3(C)CCC2C3(C)C)cc1 (stereo unspecified)	0.95% (inactive)
O=c1[nH]c2ccccc2n1CCCN1CCN(C(c2ccccc2)c2ccccc2)CC1 [oxatomide]	2.61% (inactive)
Cc1ccsc1/C=C/C1=NCCCN1C	-3.26% (inactive)
CN(C(=O)CN1C(=O)COc2cc(Cl)c(Cl)cc21)[C@@H](CN1CCCC1)c1ccc(-c2cccc(C(N)=O)c2)cc1	1.04% (inactive)
CCC(N)C(O)c1ccc(O)c(O)c1 (stereo unspecified) [ethylnorepinephrine]	0.7% (inactive)
O=C(O)[C@@H]1C[C@@H](C2CCCCC2)CN1C(=O)CP(=O)(O)CCCCc1ccccc1	-5.78% (inactive)
Oc1ccc2[nH]cc(C3=CCNCC3)c2n1	6.88% (inactive)
CC(C)NCC(O)c1ccc2ccccc2c1 (stereo unspecified)	1% (inactive)
CC[C@H](C)n1cc(C)c2c(C(=O)NCc3c(C)cc(C)[nH]c3=O)cc(-c3ccc(N4CCNCC4)nc3)cc21	2.76% (inactive)
O=C(OCCN1CCOCC1)C1(c2ccccc2)CCCCC1	2.9% (inactive)
O=C(C1CC1)N1CC[C@@H](Cc2n[nH]c(=O)n2-c2ccc(-c3ccc4occc4c3)cc2)C1	-1.14% (inactive)
O=C1O[C@H](CO)[C@@H](O)[C@H](O)[C@H]1O	1.67% (inactive)
Clc1ccc(N2CCN(Cc3c[nH]c4ncccc34)CC2)cc1	-0.31% (inactive)
COc1ccc(CN(CCN(C)C)c2ccccn2)cc1	-2.48% (inactive)
